- target_entity: Streptavidin (Streptomyces avidinii) (UniProt P22629)
- Sequence (P22629 whole entry, looked up): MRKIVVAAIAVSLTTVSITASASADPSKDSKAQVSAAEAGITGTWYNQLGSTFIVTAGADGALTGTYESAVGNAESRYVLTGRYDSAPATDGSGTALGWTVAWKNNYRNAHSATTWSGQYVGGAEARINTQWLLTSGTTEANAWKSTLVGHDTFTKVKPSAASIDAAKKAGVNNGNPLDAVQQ
- assay_procedure: streptavidin binders on small-molecule microarray, primary screen, artefact control for SMM compound annotation, biophysical, 635/667 nm fluorescence (AID 1147);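 also: signal reflects streptavidin binding to arrayed compounds as a control protein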
- experimental_conditions: streptavidin binding, higher = more signal

- compound: "CCOC(=O)CCN1C(=O)[C@H]2[C@@H]3C(=CC[C@H]2C1=O)C(=O)[C@H]1O[C@H]1[C@H]3O"
  composite z-score: -0.7
- compound: "CCOC(=O)NN=C1C[C@@H](O)[C@@H](O)[C@@H]2[C@@H]3C(=O)N(C[C@@H]4CCCO4)C(=O)[C@@H]3CC[C@H]12"
  composite z-score: -0.319
- compound: "O=C1[C@H]2[C@H]3[C@H](O)[C@H](O)CC(=NO[C@@H]4O[C@H](CO)[C@@H](O)[C@H](O)[C@H]4O)[C@@H]3CC[C@H]2C(=O)N1C1CCCCC1"
  composite z-score: 0.247
- compound: "CCN1C(=O)[C@H]2[C@H]3[C@H](O)[C@H](O)CC(=NNC(=O)OCc4ccccc4)[C@H]3CC[C@H]2C1=O"
  composite z-score: 0.214
- compound: "CCCNC(=O)OC[C@H]1O[C@H](CCON=C2c3cc(OC)ccc3O[C@H](c3cccc(OC)c3)[C@H]2O)C=C[C@@H]1Oc1ccc(OC)cc1"
  composite z-score: 0.474
- compound: "C[C@@H]1CC[C@H]2C(=O)OC(CN3C(=O)c4ccccc4C3=O)CN2[C@H]1c1ccc(Br)cc1 (some centres not stated)"
  composite z-score: 0.942
- compound: "C[C@@H]1CC[C@H]2C(=O)N3[C@@H](CC[C@@H](C)[C@@H]3c3ccc(Br)cc3)C(=O)N2[C@H]1c1ccc(Br)cc1"
  composite z-score: 0.146
